Reference source for all entries: patent US20250326772A1

measurement_target: MRGPRX2 (Homo sapiens)
Sequence (Q96LB1 whole entry): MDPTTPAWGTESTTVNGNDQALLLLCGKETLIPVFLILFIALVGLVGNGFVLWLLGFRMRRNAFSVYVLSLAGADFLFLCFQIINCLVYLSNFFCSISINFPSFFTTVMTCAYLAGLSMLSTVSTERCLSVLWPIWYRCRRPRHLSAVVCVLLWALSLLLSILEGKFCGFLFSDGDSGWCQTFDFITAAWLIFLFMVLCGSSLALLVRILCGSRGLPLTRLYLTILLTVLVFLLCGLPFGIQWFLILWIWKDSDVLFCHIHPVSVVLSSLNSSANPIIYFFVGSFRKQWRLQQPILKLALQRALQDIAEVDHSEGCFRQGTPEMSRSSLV
protocol_text: MRGPRX2 reporter cell assay (NFAT-RE luciferase, Substance P stimulation)
Format: cell-based
condition_notes: U2OS cells stably transfected with MRGPRX2 and NFAT-RE luciferase reporter; Substance P at EC80; class symbols
pIC50: −log10 of the molar value.
observation_type: pIC50

These solved cases illustrate the format of a correct answer.
Which pIC50 value is on record for CS(=O)(=O)N[C@@H]1COc2c(-c3[nH]c4ncccc4c3-c3cccnc3OC(F)F)c(C(F)F)nn2C1 [EX. 521] ?
> 8.00

Which pIC50 value is on record for Cn1cc(-c2[nH]c3ncccc3c2-c2cc(Cl)ccc2C#N)c(C(F)F)n1 [EX. 375] ?
> 8.00

Which pIC50 value is on record for Cn1cc(-c2c(-c3c(C(F)F)nn4c3OC[C@@H](NS(=O)(=O)CCCO)C4)[nH]c3ncccc23)c(OC(F)F)n1 [EX. 581] ?
> 8.00

Which pIC50 value is on record for Cn1cc(-c2c(-c3c(C(F)F)nn4c3OC[C@@H](NS(=O)(=O)CCO)C4)[nH]c3ncccc23)c(OC(F)F)n1 [EX. 577] ?
> 8.00

Which pIC50 value is on record for COc1ncccc1-c1c(-c2c(C(F)F)nn3c2OC[C@@H](F)C3)[nH]c2ncccc12 [EX. 446] ?
> 8.00

Which pIC50 value is on record for N#Cc1ccccc1-c1c(-c2cn[nH]c2C(F)F)[nH]c2nccc(F)c12 [EX. 81] ?
> 8.00

Which pIC50 value is on record for FC(F)c1nn2c(c1-c1[nH]c3ncccc3c1C1=CCCCC1)OCCC2 [EX. 430] ?
> 8.00

Which pIC50 value is on record for Cn1cc(-c2c(-c3c(C(F)F)nn4c3OC[C@@H](O)C4)[nH]c3ncsc23)c(OC(F)F)n1 [EX. 427] ?
> 8.00

Which pIC50 value is on record for [2H]C([2H])([2H])Oc1ccc(C#N)c(-c2c(-c3c(C(F)F)nn4c3OC[C@H](O)C4)[nH]c3ncccc23)c1 [EX. 370] ?
> 8.00

Which pIC50 value is on record for N#Cc1nscc1-c1c(-c2c(C(F)F)nn3c2OCCC3)[nH]c2ncccc12 [EX. 403] ?
> 8.00

***
Which pIC50 value is on record for [2H]C([2H])([2H])Oc1ccc(C#N)c(-c2c(-c3cn(C)nc3C(F)F)[nH]c3ncccc23)c1 [EX. 381] ?
> 8.00

Which pIC50 value is on record for COc1ccc(C#N)c(-c2c(-c3c(C(F)F)nn4c3OC[C@@H](N)C4)[nH]c3ncccc23)c1 [EX. 363] ?
> 8.00

Which pIC50 value is on record for COc1ccc(F)cc1-c1[nH]c2ncccc2c1C1=CCCCC1 [EX. 301] ?
6.00 to 7.00
